- EXPERIMENT DESCRIPTION: gradient 5% acetonitrile 3 min, to 50% in 2 min, to 85% in 15 min, held 3 min, 100 µL/min
- RUN PARAMETERS: column: Zorbax Extend-C18 2.1 x 50 mm; eluents: water / acetonitrile, 0.1% formic acid
OUTCOME MEASURE: RP-LC retention time (s)
The reply should be a number in s, with the unit left off.

compound=O=C(C1CCN(c2nccnc2Sc2ccccc2)CC1)N1CCOCC1 outcome_measure="RP-LC retention time" readout_number=798
compound=CCCOC(=O)Cn1c(=O)oc2cc(S(=O)(=O)N3CCN(c4ccccn4)CC3)ccc21 outcome_measure="RP-LC retention time" readout_number=703

Kindly note the recorded RP-LC retention time for CCOC(=O)c1cnc2nc(-c3ccccc3Cl)nn2c1C , which is 945

---

- EXPERIMENT DESCRIPTION: gradient 5% acetonitrile 3 min, to 50% in 2 min, to 85% in 15 min, held 3 min, 100 µL/min
- RUN PARAMETERS: column: Zorbax Extend-C18 2.1 x 50 mm; eluents: water / acetonitrile, 0.1% formic acid
OUTCOME MEASURE: RP-LC retention time
Show the value, then the unit it is measured in.

compound=CCn1cc(CCNC(=O)c2cc(F)ccc2Cl)c2cccnc21 result="729 s"
compound=CSc1cccc(NC(=O)Cn2cnc3c(sc4nc(-c5ccccc5)ccc43)c2=O)c1 result="1040 s"
compound=CCn1cc(-c2ccncc2)cc1C(=O)NCc1cccc(Br)c1 result="705 s"
compound=O=C(Cc1c(F)cccc1Cl)N1C[C@@H]2C[C@H]1C[C@@H]2NS(=O)(=O)c1cccs1 result="766 s"
compound="Cc1ccc(CNC(=O)C2CCN(S(C)(=O)=O)c3cc(Cl)ccc3O2)cc1 (stereo not given)" result="955 s"
compound=CCc1ccc(S(=O)(=O)N2CCC(C(=O)NCc3csc(-c4ccccc4)n3)CC2)cc1 result="999 s"
compound=O=C(Nc1ccsc1-c1nnc(C2CC2)o1)c1ccsc1 result="1170 s"
compound=Cc1sc(-c2cc(C(F)(F)F)on2)cc1S(=O)(=O)Nc1ccccc1F result="1110 s"
compound=O=C(NCCCn1ncccc1=O)c1cccc(-n2ccc3ccccc32)c1 result="770 s"
compound=O=C(CC1CCN(C(=O)Nc2cccc(C(F)(F)F)c2)CC1)N1CCCCC1 result="878 s"

For reference, reported RP-LC retention time for CCC(C(=O)N1CCN(c2cc(=O)n(C)c(=O)n2C)CC1)N1C(=O)COc2ccccc21 (stereo not given) stands at 702 s

compound O=C(NCCS(=O)(=O)N1CCN(c2cccc(Cl)c2)CC1)c1cc2ccccc2o1 , RP-LC retention time observed: 941 s

// Cc1nn(C(C)C(=O)Nc2cccc(F)c2)c(=O)c2c(-n3cccc3)n(-c3ccccc3)nc12 (stereo not given) : RP-LC retention time value = 1120 s

---

- EXPERIMENT DESCRIPTION: gradient 5% acetonitrile 3 min, to 50% in 2 min, to 85% in 15 min, held 3 min, 100 µL/min
- RUN PARAMETERS: column: Zorbax Extend-C18 2.1 x 50 mm; eluents: water / acetonitrile, 0.1% formic acid
Note to self: RP-LC retention time under 800 s means MET, ties and anything higher get NOT MET.

molecule="CCC(C)NC(=O)C1CCN(S(=O)(=O)c2c(C)[nH]c(C)c2C(=O)N2CCCCC2)CC1 (stereo unspecified)" group=MET
molecule=Cn1cc(-c2ccccc2)cc1C(=O)O group="NOT MET"

Q: Check if RP-LC retention time falls below 800 s for COc1ccc(C(=O)N2CCc3cc(-c4csc(C)n4)ccc32)cc1OC .
Ans: NOT MET

Q: Is 800 s strictly greater than the molecule's reported RP-LC retention time? molecule: O=C(Nc1cnn(-c2ncc(N3CCSCC3)cn2)c1)NC1CCCC1
Ans: NOT MET

Q: # check: RP-LC retention time < 800 s for O=C(Cn1c(=O)c2cc(C3CC3)nn2c2ncccc21)Nc1ccccc1
Ans: MET

Q: Check if RP-LC retention time falls below 800 s for COc1ccccc1NC(=O)N1CCC2(CC1)NC(=O)c1ccc(F)cc1N2C .
Ans: MET

Q: Is it true that RP-LC retention time reported for CS(=O)(=O)N1CCC(C(=O)Nc2ccc(Oc3ccccc3)cc2)Oc2ccccc21 (stereo unspecified) is less than 800 s?
Ans: NOT MET

Q: Input CCOC(=O)c1c(C)c(-c2ccccc2)n(CC(=O)N2CCN(c3ccccn3)CC2)c1C ; condition: RP-LC retention time strictly below 800 s. Does it hold?
Ans: MET

Q: Dear colleague, could you confirm whether RP-LC retention time of Cc1ccc(NC(=O)Cn2c(=O)c3cc(-c4cccs4)nn3c3ncccc32)cc1F falls below 800 s? Thanks.
Ans: NOT MET

Q: Check if RP-LC retention time falls below 800 s for COc1ccc(NC(=O)c2cn3c(n2)COCC3)cc1Cl .
Ans: MET
